B1: Arginine-glutamic acid dipeptide repeats protein, residues 502 to 543; numbered along this chain, Q9P2R6 (parent)
chain: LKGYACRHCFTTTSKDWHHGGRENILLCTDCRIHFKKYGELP

Variants of: B1
Method Notes: abundance fitness (aPCA) (normalised: wild type 0, dead -1); higher = more abundant; growth selection in yeast, the domain comes from the species named
Applied Conditions: Homo sapiens
Assign class by abundance fitness: not lower than -0.3 means t; lower than -0.3 means f.

These recorded examples may help you get a feel for the data.
>>> category("R7H")
"f"
>>> category("C28L")
"f"
>>> category("K2G")
"t"
>>> category("T29N")
"t"

In: Hello, I need to know if L26P has measured abundance fitness not below -0.3. Thanks!
Out: t

In: Hello, I need to know if C6R has measured abundance fitness not below -0.3. Thanks!
Out: f

In: Hello, I need to know if G39M has measured abundance fitness not below -0.3. Thanks!
Out: f

In: Hello, I need to know if H19S has measured abundance fitness not below -0.3. Thanks!
Out: t

In: Hello, I need to know if E40S has measured abundance fitness not below -0.3. Thanks!
Out: t

In: Hello, I need to know if N24C has measured abundance fitness not below -0.3. Thanks!
Out: f

In: Hello, I need to know if T29G has measured abundance fitness not below -0.3. Thanks!
Out: t

In: Hello, I need to know if H18P has measured abundance fitness not below -0.3. Thanks!
Out: f

In: Hello, I need to know if T12E has measured abundance fitness not below -0.3. Thanks!
Out: t
